Reported IC50 values are given for each entry in this list.
# Test system: Polyadenylate-binding protein 1 (Homo sapiens)
# Sequence (P11940 whole entry): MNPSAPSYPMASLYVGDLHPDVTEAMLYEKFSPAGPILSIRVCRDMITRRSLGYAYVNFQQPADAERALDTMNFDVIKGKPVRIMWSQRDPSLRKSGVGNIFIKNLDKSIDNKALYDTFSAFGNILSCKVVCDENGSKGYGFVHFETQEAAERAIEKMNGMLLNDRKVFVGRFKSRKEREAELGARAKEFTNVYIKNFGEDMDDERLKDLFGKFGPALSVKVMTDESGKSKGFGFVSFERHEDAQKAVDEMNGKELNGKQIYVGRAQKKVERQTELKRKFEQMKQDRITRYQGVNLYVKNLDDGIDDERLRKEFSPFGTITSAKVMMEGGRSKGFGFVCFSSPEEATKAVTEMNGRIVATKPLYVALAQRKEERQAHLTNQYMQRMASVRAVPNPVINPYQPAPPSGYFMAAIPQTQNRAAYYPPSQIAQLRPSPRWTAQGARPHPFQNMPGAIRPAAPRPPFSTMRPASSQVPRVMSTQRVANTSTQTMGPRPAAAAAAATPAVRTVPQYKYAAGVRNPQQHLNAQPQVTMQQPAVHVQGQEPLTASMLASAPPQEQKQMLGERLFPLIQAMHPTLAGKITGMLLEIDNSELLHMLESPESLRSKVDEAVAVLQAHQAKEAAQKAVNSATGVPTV
# Measurement notes: PABP1 MLLE–PAM2 binding inhibitor potency, dose response, biochemical, fluorescence polarization, FITC-PAM2 peptide (AID 602259)
# Type: functional
# Protocol conditions: read-out: IC50_Mean
The source made the active and inactive calls.

Compound	IC50
O=C(NC(=S)Nc1ccccc1Br)c1ccco1	> 66 µM (inactive)
Cc1cc(C)n(CC(=O)NNC(=O)COc2ccc(Br)cc2F)n1	> 66 µM (inactive)
CCCc1cc(=O)[nH]c(SCC(=O)Nc2nonc2N)n1	> 66 µM (inactive)
CCCCC(=O)NC(=S)Nc1ccccc1C(=O)Nc1ccccc1	> 66 µM (inactive)
C=CCn1c(SCC(=O)c2cc(C)n(C(C)COC)c2C)nc2sc(C)c(C)c2c1=O (configuration not stated)	> 66 µM (inactive)
Oc1c(N=Nc2nn[nH]n2)ccc2ccccc12	38.9 µM (inactive)
Cc1cccnc1NC(=S)NC(=O)c1cccs1	> 66 µM (inactive)
CCOC(=O)C1Nc2ccc(C(=O)O)cc2C2C=CCC12 (configuration not stated)	> 66 µM (inactive)
Cn1cnc([N+](=O)[O-])c1Sc1ccc([N+](=O)[O-])cc1	> 66 µM (inactive)
CC(=O)Nc1ccc(SC[C@H](Cc2ccccc2)N2CC[C@@H](O)CCC2=O)cc1	> 66 µM (inactive)
O=C1c2ccccc2C(=O)c2c(/C=C/N3CCCCC3)ccnc21	50.2 µM (inactive)
O=C(CSc1nc(O)c(Cc2ccccc2)c(O)n1)Nc1nnc(SCc2ccccc2)s1	> 66 µM (inactive)

----------
Entries and their measured AC50 follow.
# Test system: UniProt P33261
# Sequence (P33261 whole entry): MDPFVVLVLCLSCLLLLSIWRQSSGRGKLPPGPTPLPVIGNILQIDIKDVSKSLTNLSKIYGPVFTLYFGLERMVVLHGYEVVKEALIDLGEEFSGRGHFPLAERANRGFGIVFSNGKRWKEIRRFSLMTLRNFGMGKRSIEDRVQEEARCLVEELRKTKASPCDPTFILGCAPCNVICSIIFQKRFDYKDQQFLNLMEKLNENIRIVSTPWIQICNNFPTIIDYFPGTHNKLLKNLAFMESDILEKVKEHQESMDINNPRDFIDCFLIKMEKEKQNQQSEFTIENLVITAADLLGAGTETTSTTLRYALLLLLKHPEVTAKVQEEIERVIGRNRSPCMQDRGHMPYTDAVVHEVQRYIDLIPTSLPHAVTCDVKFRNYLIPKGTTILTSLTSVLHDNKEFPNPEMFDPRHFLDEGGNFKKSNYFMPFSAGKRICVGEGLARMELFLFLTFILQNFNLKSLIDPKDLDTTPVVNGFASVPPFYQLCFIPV
# Measurement notes: Cytochrome panel assay with activity outcomes. Panel member name: p450-cyp2c19 Compounds with AC50 equal or less than 10 uM are considered active
# Type: functional
# Protocol conditions: read-out: AC50

Compound	AC50
CCn1c(=O)cc(SCC(=O)Nc2cc(OC)c(OC)c(OC)c2)c2ccccc21	0.355 µM (inconclusive)
COc1cccc(OC)c1C(=O)Nc1cc(C)on1	39.8 µM (inconclusive)
O=C(OCC1CC(c2ccccc2)=NO1)c1ccc(Cl)cc1 (stereo unspecified)	7.08 µM (inconclusive)
COC(=O)N1CCC2(CC1)CCN(c1ccccc1)CC2	5.01 µM (inconclusive)
Cc1cc(C)c(C#N)c(Oc2ccc(F)cc2)n1	39.8 µM (inconclusive)
Cc1cc(CSc2ccccc2)ccc1NC(=O)COc1ccccc1	2.24 µM (inconclusive)
NS(=O)(=O)c1ccc(/N=N\c2cnc(O)c(O)c2)cc1	6.31 µM (inconclusive)
Cc1cc[n+](CC(=O)Nc2cc(C(F)(F)F)ccc2Cl)cc1	3.98 µM (inconclusive)
O=C(NCCO)c1ccc(Cl)cc1	2 µM (inconclusive)
CCOC(=O)c1sc2nc(CC(=O)OC)nc(NCc3ccc(F)cc3)c2c1C	5.62 µM (inconclusive)
O=C(NNC(=O)c1ccccc1-n1cccc1)c1ccccc1	11.2 µM (inconclusive)

----------
# Measurement notes: inhibitors of intracellular T. cruzi replication, confirmation, NIH3T3 host cells, beta-gal luminescence (AID 2044);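 note: intracellular parasites grown in NIH/3T3 mouse fibroblasts as host cells; luminescent beta-galactosidase reporter signal from transgenic T. cruzi replicating inside host cells; inhibitors lower the luminescence signal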
# Format: functional, cell-based
The source made the active and inactive calls.

Compound	EC50
CCC(=O)OCCNc1cc(Sc2nccn2C)c2nonc2c1[N+](=O)[O-]	1.97 µM (active)
Cc1ccc(C)c(-c2csc(NC(=O)c3cnccn3)n2)c1	2.04 µM (active)
O=c1c2ccccc2[nH]c(=S)n1CCCN1CCN(c2ccccc2)CC1	< 0.1 µM (active)
CCCC(=O)NC(c1ccccc1)c1ccc2cccnc2c1O (stereo not given)	0.565 µM (active)
Cc1cc(C(=O)N/N=C/c2ccc([N+](=O)[O-])s2)c2ccccc2n1	0.623 µM (active)
COc1ccc(Nc2cc(C)nc(NCc3ccccc3)n2)cc1	0.12 µM (active)
CCCCCCSc1ccc(-c2nc3ccc(C)cn3c2NCc2ccccc2)cc1OC	0.701 µM (active)
COCc1c(Br)c(C)nc(OCC(=O)N/N=C/c2cc(C)n(-c3ccc([N+](=O)[O-])cc3)c2C)c1C#N	1.95 µM (active)
Oc1ccccc1C(Nc1nccs1)c1ccc2cccnc2c1O (stereo not given)	0.832 µM (active)
CC(=O)Nc1nc2ccccc2n1Cc1ccc(C)cc1	3.92 µM (active)
O=[N+]([O-])c1ccc2c(OCc3nnc(-c4ccccc4Br)o3)ncnc2c1	0.213 µM (active)
O=C(Nc1nc(-c2ccccc2)c(-c2ccccc2)s1)c1ccc(S(=O)(=O)N(CCCl)CCCl)cc1	1.25 µM (active)
CC(C)CCN1CCN(C2CCN(c3ccc4c(c3)OCO4)CC2)CC1CCO (stereo not given)	1.56 µM (active)
O=C(Nc1ccc(N2CCN(C(=O)c3ccco3)CC2)c(Cl)c1)c1cc2ccccc2o1	2.3 µM (active)
CC(C)CN1CCCC(N2CCN(c3cccc(Cl)c3)CC2)C1 (stereo not given)	3.19 µM (active)

----------
# Test system: UniProtKB Q9GZV3
# Sequence (Q9GZV3 whole entry): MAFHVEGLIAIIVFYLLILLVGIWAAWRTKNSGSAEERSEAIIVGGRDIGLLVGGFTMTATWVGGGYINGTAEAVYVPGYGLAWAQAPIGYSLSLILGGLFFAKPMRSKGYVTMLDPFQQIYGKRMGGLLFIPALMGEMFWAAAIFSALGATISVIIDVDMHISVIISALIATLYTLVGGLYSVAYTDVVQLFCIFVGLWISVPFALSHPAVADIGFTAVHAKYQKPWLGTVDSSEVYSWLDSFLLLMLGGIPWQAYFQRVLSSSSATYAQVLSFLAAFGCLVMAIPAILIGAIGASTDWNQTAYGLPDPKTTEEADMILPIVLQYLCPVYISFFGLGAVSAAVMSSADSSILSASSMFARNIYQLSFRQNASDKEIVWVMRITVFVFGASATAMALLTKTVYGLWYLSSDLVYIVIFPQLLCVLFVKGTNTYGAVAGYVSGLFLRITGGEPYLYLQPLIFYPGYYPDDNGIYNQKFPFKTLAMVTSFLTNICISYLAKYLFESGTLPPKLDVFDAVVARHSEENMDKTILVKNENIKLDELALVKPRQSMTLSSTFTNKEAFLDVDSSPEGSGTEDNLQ
# Measurement notes: CHT inhibitors, dose response, cell-based, 5-point CRC, membrane potential dye (AID 504840)
# Format: functional
Calls of active or inactive are those of the source.
Readout type: IC50

Compound	Experimental result
C[N+]1(C)CCOC(O)(c2ccc(-c3ccc(C4(O)C[N+](C)(C)CCO4)cc3)cc2)C1 (stereo unspecified)	0.296 µM (active)
CS(=O)(=O)C1=NSC2=NC(=O)/C(=C\c3ccc(OS(=O)(=O)c4ccccc4)cc3)C(=N)N21	4.17 µM (active)
CCCCN(CCCC)CCNC(=O)c1cn(C)c2ccc(S(=O)(=O)N(C)C3CCCCC3)cc2c1=O	15.6 µM (active)
Cc1ccc(C(C)NC(=O)C2CCCC2)cc1C (stereo unspecified)	8.58 µM (active)
Cc1cc(C(=O)Cn2ncc(Cl)c(Cl)c2=O)c(C)n1CC(F)(F)F	20.9 µM (active)
Cc1ccc(Oc2ccc(NC(=O)Cn3ccsc3=N)cc2)cc1	13.2 µM (active)

----------
# Test system: 26S proteasome non-ATPase regulatory subunit 14 (Homo sapiens, UniProt O00487)
# Sequence (O00487 whole entry): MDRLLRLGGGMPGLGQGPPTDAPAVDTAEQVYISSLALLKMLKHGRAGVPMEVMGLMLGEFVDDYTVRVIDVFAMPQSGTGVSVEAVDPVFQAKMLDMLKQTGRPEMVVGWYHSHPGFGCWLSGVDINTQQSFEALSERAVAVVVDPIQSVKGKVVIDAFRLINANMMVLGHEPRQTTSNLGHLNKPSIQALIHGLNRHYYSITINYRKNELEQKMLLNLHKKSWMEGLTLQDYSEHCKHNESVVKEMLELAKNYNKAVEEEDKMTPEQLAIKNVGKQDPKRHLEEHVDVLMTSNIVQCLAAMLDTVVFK
# Measurement notes: inhibition of proteasome subunit RPN11 – biochemical, fluorescence polarization, uHTS hits, confirmation (AID 602368)
# Type: functional
Activity calls are given as the source filed them.

Smiles code	IC50
COc1ccc(Cl)cc1NC(=O)CCS(=O)(=O)c1ccc(Br)cc1	10.9 µM (active)
O=C(CCCN1C(=O)/C(=C/c2ccc3c(c2)OCO3)SC1=S)Nc1ccc(C(=O)O)cc1	40.7 µM (active)
CCS(=O)(=O)C1=NN2C(=N)/C(=C\c3ccc(SCc4ccco4)o3)C(=O)N=C2S1	12 µM (active)
CN(C)c1ccc(/C=C/C=C2/SC(=S)N(c3ccccc3)C2=O)cc1	0.703 µM (active)

----------
Each entry below lists one item and its recorded EC50 value.
# Measurement notes: C. albicans growth with fluconazole, confirmation, fluorescence, retest (AID 2467)
# Assay type: functional, cell-based
Activity calls are given as the source filed them.

Smiles code	EC50
Cc1cccc(NC(=S)N/N=C(\c2ccccc2)C(C)C)c1	3.98 µM (active)
COc1ccc(-c2cn3c([n+]2-c2ccccc2)CCCCC3)cc1	2.53 µM (active)
CC(C)(C)C(=O)NC(=S)NNC(=O)c1sc2ccccc2c1Cl	1.35 µM (active)
Oc1ccc(CN2CCN(Cc3ccccc3)CC2)c2cccnc12	> 38 µM (not active)
CNC[C@H](CC1CCCCC1)NC[C@H](Cc1ccccc1)NCCC12CC3CC(CC(C3)C1)C2	3.71 µM (active)
CCCCCCCCNc1ncnc2ccccc12	3.26 µM (active)

----------
# Test system: Caspase-3 (Homo sapiens, UniProt P42574);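 note: Dose-response selectivity test against caspase-3 for candidate inhibitors of sentrin-specific proteases (SENPs)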
# Type: functional
Active and inactive are the calls of the source.

Smiles code	IC50
O=C(Nc1nnc(C(F)(F)F)s1)c1ccc(Br)s1	18.8 µM (active)
CC(C)Oc1ccc2c(=O)c(-c3ccccc3)coc2c1	19.7 µM (active)
Cc1ccc(C(=O)Nc2ccc3c(c2)OCO3)cc1Cl	13.4 µM (active)
CCc1ccc(OCC(=O)N/N=C2\CC(=O)c3ccccc32)cc1	3.7 µM (active)
CCOC(=O)c1ccc(-c2ccc3c(c2)CCC3)nc1C	22.8 µM (active)
CCOc1ccc(/C=C2\CCc3ccccc3C2=O)cc1	1.5 µM (active)
CCCCn1c(NC(=O)c2ccccc2Cl)c(C#N)c2nc3ccccc3nc21	12.2 µM (active)

----------
# Test system: Cysteine protease ATG4B (Homo sapiens, UniProt Q9Y4P1);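 note: Fluorescence-based dose-response confirmation assay measuring inhibition of ATG4B activity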
# Sequence (Q9Y4P1 whole entry): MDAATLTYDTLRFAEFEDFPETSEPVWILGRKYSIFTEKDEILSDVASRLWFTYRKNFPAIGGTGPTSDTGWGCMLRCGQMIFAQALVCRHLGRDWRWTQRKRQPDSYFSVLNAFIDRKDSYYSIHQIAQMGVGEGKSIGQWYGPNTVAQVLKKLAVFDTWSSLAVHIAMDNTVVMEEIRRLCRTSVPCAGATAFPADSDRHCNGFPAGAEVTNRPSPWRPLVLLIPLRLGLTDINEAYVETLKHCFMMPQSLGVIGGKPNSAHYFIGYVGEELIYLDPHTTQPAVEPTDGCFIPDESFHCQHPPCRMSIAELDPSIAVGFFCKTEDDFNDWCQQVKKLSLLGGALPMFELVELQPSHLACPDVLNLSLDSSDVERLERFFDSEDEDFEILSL
# Format: functional
Activity calls are given as the source filed them.
Labels: class 1 (active), class 0 (inactive)

Compound	Test system	Category label
CCCC1=Nc2cc(C(=O)NCc3ccco3)ccc2Sc2ccccc21	Cysteine protease ATG4B (Homo sapiens, UniProt Q9Y4P1)	class 1
CN(C)[C@@H]1C(O)=C(C(N)=O)C(=O)[C@@]2(O)C(O)=C3C(=O)c4c(O)ccc(Cl)c4[C@@](C)(O)C3C[C@@H]12 (stereo not given in full)	Cysteine protease ATG4B (Homo sapiens, UniProt Q9Y4P1)	class 1
O=C1C(=O)c2ccccc2-c2ccccc21	Cysteine protease ATG4B (Homo sapiens, UniProt Q9Y4P1)	class 1
COc1ccc(C(C)=O)cc1CSc1nc2ccccc2c(=O)n1-c1cccc(C)c1	Cysteine protease ATG4B (Homo sapiens, UniProt Q9Y4P1)	class 1
FC(F)(F)Oc1ccc(NC(S)=NCc2ccccc2)cc1	Cysteine protease ATG4B (Homo sapiens, UniProt Q9Y4P1)	class 0
